Experiment: Cytotoxicity test (free-LDH ratio), TIG-3
Type: cell-based
Details: human, TIG-3 human normal lung cells, LD50 (nM) TIG-3
Where a SMILES comes first, the peptide text is derived from it. [ ]: non-standard residue; d: D form. Gly((CH2)5SH) = N[C@@H](CCCCCS)C(=O)O
Measurement Type: CC50 at 48 h (nM)
A number alone suffices; assume nM.

Lookup: I am curious: what CC50 at 48 h value has been reported for CC[C@H](C)[C@@H]1NC(=O)[C@@H](Cc2ccc(OC)cc2)NC(=O)[C@H](CCCCCS)NC(=O)[C@H]2CCCN2C1=O [SCOP 152] (cyclo([Gly((CH2)5SH)][dY](Me)I[dP])) ?
Found: 6780
